Species: Rattus norvegicus
Assay: Inhibition of nAChR-mediated nicotine-evoked [3H]DA release in superfused rat striatal slices at 100 nM
readout-kind: inhibition (%)

[
  {
    "chem-smiles": "c1ccc(-c2ccc[n+](CCCCCc3cc(CCCCC[n+]4cccc(-c5ccccc5)c4)c(CCCCC[n+]4cccc(-c5ccccc5)c4)cc3CCCCC[n+]3cccc(-c4ccccc4)c3)c2)cc1",
    "unit-tag": "%",
    "endpoint-result": 19
  },
  {
    "chem-smiles": "Cc1ccc[n+](CCCCCc2cc(CCCCC[n+]3cccc(C)c3)c(CCCCC[n+]3cccc(C)c3)cc2CCCCC[n+]2cccc(C)c2)c1",
    "unit-tag": "%",
    "endpoint-result": 8
  },
  {
    "chem-smiles": "c1ccc2c[n+](CCCCCc3cc(CCCCC[n+]4ccc5ccccc5c4)c(CCCCC[n+]4ccc5ccccc5c4)cc3CCCCC[n+]3ccc4ccccc4c3)ccc2c1",
    "unit-tag": "%",
    "endpoint-result": 63
  }
]

----------
Target: Neuronal acetylcholine receptor subunit alpha-7 (Rattus norvegicus) (UniProt Q05941)
Sequence (Q05941 whole entry): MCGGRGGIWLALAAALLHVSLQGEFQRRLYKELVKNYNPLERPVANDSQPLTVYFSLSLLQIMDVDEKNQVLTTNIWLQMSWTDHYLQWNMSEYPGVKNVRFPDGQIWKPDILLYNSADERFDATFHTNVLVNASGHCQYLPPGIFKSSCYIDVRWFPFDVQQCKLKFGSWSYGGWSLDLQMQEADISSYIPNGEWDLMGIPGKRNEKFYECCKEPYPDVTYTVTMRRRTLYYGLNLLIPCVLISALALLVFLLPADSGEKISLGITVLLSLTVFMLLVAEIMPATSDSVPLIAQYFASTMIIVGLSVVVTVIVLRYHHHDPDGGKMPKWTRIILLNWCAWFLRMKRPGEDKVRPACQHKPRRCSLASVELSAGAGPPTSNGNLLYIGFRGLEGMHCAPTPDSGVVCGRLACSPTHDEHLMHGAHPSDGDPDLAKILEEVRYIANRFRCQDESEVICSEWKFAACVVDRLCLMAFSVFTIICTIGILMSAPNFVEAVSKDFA
Assay: Displacement of [3H]methyllycaconitine from alpha7 nAChR in rat brain membrane at 100 nM
Format: cell membranes
Values of Activity greater than or equal to 20% map to t; values below map to f.

[
  {
    "chem-smiles": "c1ccc(-c2ccc[n+](CCCCCc3cc(CCCCC[n+]4cccc(-c5ccccc5)c4)c(CCCCC[n+]4cccc(-c5ccccc5)c4)cc3CCCCC[n+]3cccc(-c4ccccc4)c3)c2)cc1",
    "label-value": "t"
  },
  {
    "chem-smiles": "Cc1ccc[n+](CCCC#Cc2cc(C#CCCC[n+]3cccc(C)c3)c(C#CCCC[n+]3cccc(C)c3)cc2C#CCCC[n+]2cccc(C)c2)c1",
    "label-value": "f"
  },
  {
    "chem-smiles": "Cc1cc[n+](CCCCCc2cc(CCCCC[n+]3ccc(C)cc3)c(CCCCC[n+]3ccc(C)cc3)cc2CCCCC[n+]2ccc(C)cc2)cc1",
    "label-value": "f"
  },
  {
    "chem-smiles": "c1ccc(Cc2ccc[n+](CCCCCc3cc(CCCCC[n+]4cccc(Cc5ccccc5)c4)c(CCCCC[n+]4cccc(Cc5ccccc5)c4)cc3CCCCC[n+]3cccc(Cc4ccccc4)c3)c2)cc1",
    "label-value": "f"
  },
  {
    "chem-smiles": "C(#Cc1cc(C#CCCC[n+]2ccc3c(c2)CCCC3)c(C#CCCC[n+]2ccc3c(c2)CCCC3)cc1C#CCCC[n+]1ccc2c(c1)CCCC2)CCC[n+]1ccc2c(c1)CCCC2",
    "label-value": "f"
  },
  {
    "chem-smiles": "C(#Cc1cc(C#CCCC[n+]2cccc(Cc3ccccc3)c2)c(C#CCCC[n+]2cccc(Cc3ccccc3)c2)cc1C#CCCC[n+]1cccc(Cc2ccccc2)c1)CCC[n+]1cccc(Cc2ccccc2)c1",
    "label-value": "t"
  },
  {
    "chem-smiles": "C(#Cc1cc(C#CCCC[n+]2cccc(-c3ccccc3)c2)c(C#CCCC[n+]2cccc(-c3ccccc3)c2)cc1C#CCCC[n+]1cccc(-c2ccccc2)c1)CCC[n+]1cccc(-c2ccccc2)c1",
    "label-value": "t"
  },
  {
    "chem-smiles": "CN1CCC[C@H]1c1ccc[n+](CCCCCc2cc(CCCCC[n+]3cccc([C@@H]4CCCN4C)c3)c(CCCCC[n+]3cccc([C@@H]4CCCN4C)c3)cc2CCCCC[n+]2cccc([C@@H]3CCCN3C)c2)c1",
    "label-value": "t"
  },
  {
    "chem-smiles": "C(#Cc1cc(C#CCCC[n+]2ccc3ccccc3c2)c(C#CCCC[n+]2ccc3ccccc3c2)cc1C#CCCC[n+]1ccc2ccccc2c1)CCC[n+]1ccc2ccccc2c1",
    "label-value": "f"
  },
  {
    "chem-smiles": "c1ccc2c[n+](CCCCCc3cc(CCCCC[n+]4ccc5ccccc5c4)c(CCCCC[n+]4ccc5ccccc5c4)cc3CCCCC[n+]3ccc4ccccc4c3)ccc2c1",
    "label-value": "t"
  },
  {
    "chem-smiles": "Cc1cc[n+](CCCC#Cc2cc(C#CCCC[n+]3ccc(C)c(C)c3)c(C#CCCC[n+]3ccc(C)c(C)c3)cc2C#CCCC[n+]2ccc(C)c(C)c2)cc1C",
    "label-value": "f"
  }
]

----------
Biological target: Neuronal acetylcholine receptor; alpha4/beta2 (Rattus norvegicus) (UniProt P09483+P12390)
Assay: Displacement of [3H]nicotine from alpha4beta2 nAChR in rat brain membrane at 100 nM
Type: cell membranes

[
  {
    "chem-smiles": "Cc1cc[n+](CCCCCc2cc(CCCCC[n+]3ccc(C)cc3)c(CCCCC[n+]3ccc(C)cc3)cc2CCCCC[n+]2ccc(C)cc2)cc1",
    "Activity (%)": 12
  },
  {
    "chem-smiles": "Cc1ccc[n+](CCCC#Cc2cc(C#CCCC[n+]3cccc(C)c3)cc(C#CCCC[n+]3cccc(C)c3)c2)c1",
    "Activity (%)": 10
  },
  {
    "chem-smiles": "C(#Cc1cc(C#CCCC[n+]2ccc3c(c2)CCCC3)c(C#CCCC[n+]2ccc3c(c2)CCCC3)cc1C#CCCC[n+]1ccc2c(c1)CCCC2)CCC[n+]1ccc2c(c1)CCCC2",
    "Activity (%)": 9.7
  }
]

----------
Species on record: Rattus norvegicus
Test: Inhibition of nAChR-mediated nicotine-evoked [3H]DA release in superfused rat striatal slices at 100 nM
Below, each entry is listed alongside its reported inhibition.

[
  {
    "chem-smiles": "c1ccc(Cc2ccc[n+](CCCCCc3cc(CCCCC[n+]4cccc(Cc5ccccc5)c4)c(CCCCC[n+]4cccc(Cc5ccccc5)c4)cc3CCCCC[n+]3cccc(Cc4ccccc4)c3)c2)cc1",
    "inhibition (%)": 54
  },
  {
    "chem-smiles": "Cc1cc[n+](CCCC#Cc2cc(C#CCCC[n+]3ccc(C)cc3)c(C#CCCC[n+]3ccc(C)cc3)cc2C#CCCC[n+]2ccc(C)cc2)cc1",
    "inhibition (%)": 35
  },
  {
    "chem-smiles": "C(#Cc1cc(C#CCCC[n+]2cccc(-c3ccccc3)c2)c(C#CCCC[n+]2cccc(-c3ccccc3)c2)cc1C#CCCC[n+]1cccc(-c2ccccc2)c1)CCC[n+]1cccc(-c2ccccc2)c1",
    "inhibition (%)": 37
  },
  {
    "chem-smiles": "C(#Cc1cc(C#CCCC[n+]2ccc3ccccc3c2)c(C#CCCC[n+]2ccc3ccccc3c2)cc1C#CCCC[n+]1ccc2ccccc2c1)CCC[n+]1ccc2ccccc2c1",
    "inhibition (%)": 39
  },
  {
    "chem-smiles": "OCCCc1ccc[n+](CCCCCc2cc(CCCCC[n+]3cccc(CCCO)c3)c(CCCCC[n+]3cccc(CCCO)c3)cc2CCCCC[n+]2cccc(CCCO)c2)c1",
    "inhibition (%)": 64
  },
  {
    "chem-smiles": "Cc1cc[n+](CCCC#Cc2cc(C#CCCC[n+]3ccc(C)c(C)c3)c(C#CCCC[n+]3ccc(C)c(C)c3)cc2C#CCCC[n+]2ccc(C)c(C)c2)cc1C",
    "inhibition (%)": 17
  },
  {
    "chem-smiles": "CN1CCC[C@H]1c1ccc[n+](CCCCCc2cc(CCCCC[n+]3cccc([C@@H]4CCCN4C)c3)c(CCCCC[n+]3cccc([C@@H]4CCCN4C)c3)cc2CCCCC[n+]2cccc([C@@H]3CCCN3C)c2)c1",
    "inhibition (%)": 43
  },
  {
    "chem-smiles": "OCCCc1ccc[n+](CCCC#Cc2cc(C#CCCC[n+]3cccc(CCCO)c3)c(C#CCCC[n+]3cccc(CCCO)c3)cc2C#CCCC[n+]2cccc(CCCO)c2)c1",
    "inhibition (%)": 41
  },
  {
    "chem-smiles": "Cc1cc[n+](CCCCCc2cc(CCCCC[n+]3ccc(C)cc3)c(CCCCC[n+]3ccc(C)cc3)cc2CCCCC[n+]2ccc(C)cc2)cc1",
    "inhibition (%)": 46
  },
  {
    "chem-smiles": "C(#Cc1cc(C#CCCC[n+]2cccc(Cc3ccccc3)c2)c(C#CCCC[n+]2cccc(Cc3ccccc3)c2)cc1C#CCCC[n+]1cccc(Cc2ccccc2)c1)CCC[n+]1cccc(Cc2ccccc2)c1",
    "inhibition (%)": 17
  },
  {
    "chem-smiles": "Cc1ccc[n+](CCCC#Cc2cc(C#CCCC[n+]3cccc(C)c3)c(C#CCCC[n+]3cccc(C)c3)cc2C#CCCC[n+]2cccc(C)c2)c1",
    "inhibition (%)": 16
  },
  {
    "chem-smiles": "Cc1cc(C)c[n+](CCCCCc2cc(CCCCC[n+]3cc(C)cc(C)c3)c(CCCCC[n+]3cc(C)cc(C)c3)cc2CCCCC[n+]2cc(C)cc(C)c2)c1",
    "inhibition (%)": 45
  }
]

----------
Species: Rattus norvegicus
Test: Inhibition of nAChR-mediated nicotine-evoked [3H]DA release in superfused rat striatal slices at 100 nM

[
  {
    "chem-smiles": "c1c(CCCCC[n+]2ccc3c(c2)CCCC3)c(CCCCC[n+]2ccc3c(c2)CCCC3)cc(CCCCC[n+]2ccc3c(c2)CCCC3)c1CCCCC[n+]1ccc2c(c1)CCCC2",
    "unit-tag": "%",
    "inhibition": 27
  },
  {
    "chem-smiles": "Cc1cc[n+](CCCCCc2cc(CCCCC[n+]3ccc(C)c(C)c3)c(CCCCC[n+]3ccc(C)c(C)c3)cc2CCCCC[n+]2ccc(C)c(C)c2)cc1C",
    "unit-tag": "%",
    "inhibition": 36
  },
  {
    "chem-smiles": "Cc1cc(C)c[n+](CCCC#Cc2cc(C#CCCC[n+]3cc(C)cc(C)c3)c(C#CCCC[n+]3cc(C)cc(C)c3)cc2C#CCCC[n+]2cc(C)cc(C)c2)c1",
    "unit-tag": "%",
    "inhibition": 12
  },
  {
    "chem-smiles": "Cc1ccc[n+](CCCC#Cc2cc(C#CCCC[n+]3cccc(C)c3)cc(C#CCCC[n+]3cccc(C)c3)c2)c1",
    "unit-tag": "%",
    "inhibition": 40
  },
  {
    "chem-smiles": "CN1CCC[C@H]1c1ccc[n+](CCCC#Cc2cc(C#CCCC[n+]3cccc([C@@H]4CCCN4C)c3)c(C#CCCC[n+]3cccc([C@@H]4CCCN4C)c3)cc2C#CCCC[n+]2cccc([C@@H]3CCCN3C)c2)c1",
    "unit-tag": "%",
    "inhibition": 31
  },
  {
    "chem-smiles": "C(#Cc1cc(C#CCCC[n+]2ccc3c(c2)CCCC3)c(C#CCCC[n+]2ccc3c(c2)CCCC3)cc1C#CCCC[n+]1ccc2c(c1)CCCC2)CCC[n+]1ccc2c(c1)CCCC2",
    "unit-tag": "%",
    "inhibition": 24
  }
]
